TESTED TARGET: S-adenosylmethionine synthase isoform type-2 (Rattus norvegicus, UniProt P18298)
Sequence (P18298 whole entry, canonical isoform): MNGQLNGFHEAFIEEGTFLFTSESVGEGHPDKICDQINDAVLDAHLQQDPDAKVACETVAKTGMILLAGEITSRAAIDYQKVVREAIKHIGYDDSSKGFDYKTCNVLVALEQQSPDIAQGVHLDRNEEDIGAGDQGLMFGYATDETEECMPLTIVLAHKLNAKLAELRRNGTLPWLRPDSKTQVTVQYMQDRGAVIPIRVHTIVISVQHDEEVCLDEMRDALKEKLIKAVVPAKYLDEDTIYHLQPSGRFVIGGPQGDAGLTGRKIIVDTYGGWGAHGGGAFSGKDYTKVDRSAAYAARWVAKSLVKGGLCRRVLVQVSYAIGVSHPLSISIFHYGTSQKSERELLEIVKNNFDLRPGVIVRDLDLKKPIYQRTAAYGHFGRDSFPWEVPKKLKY
METHOD DESCRIPTION: Inhibition Assay
MEASUREMENT CONTEXT: pH 7.5; 37 °C
Readings of Ki for the listed compounds
READOUT KIND: Ki (µM)

INSERT INTO measurements (compound, readout_kind, unit_abbreviation, endpoint_result) VALUES
  ('C[C@@H]1O[C@H]1C[C@H](N)C(=O)O', 'Ki', 'µM', 105),
  ('C[C@@H]1S[C@@H]1C[C@H](N)C(=O)O [Epithioamino acid analogue, II(c)]', 'Ki', 'µM', 140),
  ('N[C@@H](C[C@H]1CO1)C(=O)O', 'Ki', 'µM', 7),
  ('C[C@H]1S[C@@H]1C[C@H](N)C(=O)O [Epithioamino acid analogue, II(b)]', 'Ki', 'µM', 140),
  ('N[C@@H](C[C@@H]1CS1)C(=O)O [Epithioamino acid analogue, II(a)]', 'Ki', 'µM', 100),
  ('C[C@H]1O[C@H]1C[C@H](N)C(=O)O', 'Ki', 'µM', 61);

###

TESTED TARGET: S-adenosylmethionine synthase isoform type-2 (Rattus norvegicus, UniProt P18298)
METHOD DESCRIPTION: Inhibition Assay
MEASUREMENT CONTEXT: pH 7.5; 37 °C
Readings of IC50 for the listed compounds
READOUT KIND: IC50 (µM)

INSERT INTO measurements (compound, endpoint_result) VALUES
  ('C[C@H]1O[C@H]1C[C@H](N)C(=O)O', 100),
  ('N[C@@H](C[C@@H]1CS1)C(=O)O [Epithioamino acid analogue, II(a)]', 140),
  ('C[C@@H]1S[C@@H]1C[C@H](N)C(=O)O [Epithioamino acid analogue, II(c)]', 400),
  ('C[C@@H]1O[C@H]1C[C@H](N)C(=O)O', 110),
  ('C[C@H]1S[C@@H]1C[C@H](N)C(=O)O [Epithioamino acid analogue, II(b)]', 300),
  ('N[C@@H](C[C@H]1CO1)C(=O)O', 50);
